Target Desc: Zinc finger protein GLI1 (Mus musculus)
Sequence (P47806 whole entry): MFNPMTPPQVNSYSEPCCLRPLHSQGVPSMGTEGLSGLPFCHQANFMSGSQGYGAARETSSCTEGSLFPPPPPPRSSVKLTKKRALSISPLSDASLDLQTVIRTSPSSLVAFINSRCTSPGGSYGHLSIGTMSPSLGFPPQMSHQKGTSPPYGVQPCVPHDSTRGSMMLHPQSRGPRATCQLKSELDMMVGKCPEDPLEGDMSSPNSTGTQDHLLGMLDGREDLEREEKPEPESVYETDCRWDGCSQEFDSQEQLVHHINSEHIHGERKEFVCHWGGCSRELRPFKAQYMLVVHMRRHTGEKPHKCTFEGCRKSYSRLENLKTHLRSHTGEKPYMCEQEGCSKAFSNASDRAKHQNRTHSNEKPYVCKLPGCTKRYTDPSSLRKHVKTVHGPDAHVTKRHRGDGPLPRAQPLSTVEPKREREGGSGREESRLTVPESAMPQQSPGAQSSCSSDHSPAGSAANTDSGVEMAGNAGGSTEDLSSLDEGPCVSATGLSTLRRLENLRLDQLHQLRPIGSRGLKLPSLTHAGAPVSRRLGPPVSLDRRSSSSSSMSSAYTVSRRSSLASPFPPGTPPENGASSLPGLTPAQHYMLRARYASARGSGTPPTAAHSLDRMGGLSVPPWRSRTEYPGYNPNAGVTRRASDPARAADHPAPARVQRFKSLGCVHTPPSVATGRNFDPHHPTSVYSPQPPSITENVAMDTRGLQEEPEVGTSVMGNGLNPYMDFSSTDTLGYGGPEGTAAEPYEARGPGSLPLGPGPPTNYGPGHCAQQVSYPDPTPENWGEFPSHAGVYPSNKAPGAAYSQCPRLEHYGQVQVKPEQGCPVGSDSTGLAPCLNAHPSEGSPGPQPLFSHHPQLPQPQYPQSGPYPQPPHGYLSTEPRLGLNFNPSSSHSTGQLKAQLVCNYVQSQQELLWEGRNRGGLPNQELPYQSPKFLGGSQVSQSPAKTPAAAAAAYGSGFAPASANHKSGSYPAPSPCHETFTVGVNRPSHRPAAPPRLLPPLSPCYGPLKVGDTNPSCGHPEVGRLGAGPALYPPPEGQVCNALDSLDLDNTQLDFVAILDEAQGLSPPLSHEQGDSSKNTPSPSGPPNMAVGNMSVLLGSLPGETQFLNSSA
Protocol Notes: Inhibition of Gli1 transcriptional activity in mouse embroyonic fibroblasts after 24 hrs by renilla luciferase reporter gene assay
Measure Name: IC50

Some compounds with known IC50 results, for comparison:
For COc1cc(OC)c2c(=O)c(-c3ccc(OC/C=C(\C)CCC=C(C)C)c(OC)c3)coc2c1 , what is its reported IC50?
Nd(Toxic)

What about COc1cc(OC)c2c(=O)c(-c3ccc(OC)c(OCc4ccc([N+](=O)[O-])cc4)c3)coc2c1 ?
Nd(Toxic)

Now the compound COC(=O)c1ccc(COc2cc(-c3coc4cc(OC)cc(OC)c4c3=O)ccc2OC)cc1
Nd(Toxic)

Ok, now COc1cc(OC)c2c(=O)c(-c3ccc(OC)c(OCc4ccc(C(N)=O)cc4)c3)coc2c1
Nd(Toxic)

Repeat for the following compound: COc1cc(OC)c2c(=O)c(-c3ccc(OC)c(OCc4ccc(C#N)cc4)c3)coc2c1
Nd(Toxic)

Now take the following compound into account.
Item under review: COc1cc(OC)c2c(=O)c(-c3cccc(O)c3)coc2c1 . Reported IC50?
Nd(Toxic)
